Listed here are binders together with their documented Murine IL-21R-BaF3 Neutralization IC50.
- Test Target: murine IL-21R expressed on cells (murine, UniProt Q9JHX3 20-529)
- Sequence (Q9JHX3 20-529 limits assumed): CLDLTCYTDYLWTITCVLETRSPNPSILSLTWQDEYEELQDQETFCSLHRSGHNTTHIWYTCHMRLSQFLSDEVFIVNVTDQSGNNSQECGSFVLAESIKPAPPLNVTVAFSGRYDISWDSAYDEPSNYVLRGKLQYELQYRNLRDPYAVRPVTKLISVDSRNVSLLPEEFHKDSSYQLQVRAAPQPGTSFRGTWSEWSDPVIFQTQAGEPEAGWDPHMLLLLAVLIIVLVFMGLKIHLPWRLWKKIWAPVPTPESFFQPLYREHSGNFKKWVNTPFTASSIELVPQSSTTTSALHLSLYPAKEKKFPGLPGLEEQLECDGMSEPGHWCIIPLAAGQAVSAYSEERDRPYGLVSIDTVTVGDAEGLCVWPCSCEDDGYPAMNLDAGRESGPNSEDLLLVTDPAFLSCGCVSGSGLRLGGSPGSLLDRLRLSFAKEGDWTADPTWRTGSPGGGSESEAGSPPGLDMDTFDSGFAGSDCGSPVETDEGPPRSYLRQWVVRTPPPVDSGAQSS
- Assay Notes: cell-based or functional assay
Write the value in nM as a bare number.

Look over these answered cases.
AbR (antibody, human IgG1, V domains shown, CDR3 graft, residue limits derived as for m29; also called VH3/VL18; VH3DM/VL18) VH: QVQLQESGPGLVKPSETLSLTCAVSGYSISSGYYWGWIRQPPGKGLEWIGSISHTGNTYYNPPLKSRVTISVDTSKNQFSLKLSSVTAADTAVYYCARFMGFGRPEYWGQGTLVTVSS VL: SSELTQDPAVSVALGQTVRITCQGDSLRTYYASWYQQKPGQAPVLVIYGKHKRPSGIPDRFSGSSSGNTASLTITGAQAEDEADYYCVTRSVKGNPHVLFGGGTQLTVL :: 0.34
AbT (antibody, human IgG1, V domains shown, CDR3 graft, residue limits derived as for m29; also called VHP/VL9; VHPTM/VL9) VH: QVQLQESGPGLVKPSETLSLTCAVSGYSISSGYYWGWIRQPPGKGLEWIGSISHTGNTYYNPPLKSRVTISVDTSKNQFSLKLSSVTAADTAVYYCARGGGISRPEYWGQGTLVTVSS VL: SSELTQDPAVSVALGQTVRITCQGDSLRTYYASWYQQKPGQAPVLVIYGKHKRPSGIPDRFSGSSSGNTASLTITGAQAEDEADYYCVARSNKGNPHVLFGGGTQLTVL :: 0.05
AbS (antibody, V domains shown, CDR3 graft, residue limits derived as for m29; also called VHP/VL6; VHPTM/VL6) VH: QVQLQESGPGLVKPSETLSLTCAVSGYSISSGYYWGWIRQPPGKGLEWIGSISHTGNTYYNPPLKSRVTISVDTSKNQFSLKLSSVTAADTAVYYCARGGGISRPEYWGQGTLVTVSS VL: SSELTQDPAVSVALGQTVRITCQGDSLRTYYASWYQQKPGQAPVLVIYGKHKRPSGIPDRFSGSSSGNTASLTITGAQAEDEADYYCMSRSIWGNPHVLFGGGTQLTVL :: 0.04

Now consider the entry below.
Problem: What value of Murine IL-21R-BaF3 Neutralization IC50 has been recorded for this entry: parental 18A5 antibody (antibody, V domains shown, also called 18A5 IgG) VH: QVQLQESGPGLVKTSETLSLTCAVSGYSISSGYYWGWIRQPPGKGLEWIGSISHTGNTYYNPPLKSRVTISVDTSKNQFSLKLSSVTAADTAVYYCARGGGISRPEYWGKGTLVTVSS VL: SSELTQDPPVSVALGQTVTLTCQGDSLRTYYASWYQQKSGQAPILLLYGKHKRPSGIPDRFSGSTSGDTASLTITGAQAEDEADYYCNSRDSSGNPHVLFGGGTQLTVL
Solution: 177

src = patent US20120276102A1
